System: Escherichia coli
Assay: Bactericidal activity against multidrug-resistant Escherichia coli IS 54 isolated from water source by agar plating method
Conditions: IS 54, Water
Property: MBC; scope: individual compounds
Your answer should be a plain number; it is taken to be in µg/mL.

Consider the worked cases shown below.
COc1ccc(-c2nc3ccc(-c4nc5ccc(N6CCN(c7ccncc7)CC6)cc5[nH]4)cc3[nH]2)cc1OC = 2
CCOc1ccc(-c2nc3ccc(-c4nc5ccc(N6CCN(CC)CC6)cc5[nH]4)cc3[nH]2)cc1 = 8
COc1ccc(-c2nc3ccc(-c4nc5ccc(N6CCN(c7ncccn7)CC6)cc5[nH]4)cc3[nH]2)cc1OC = 64

If you can, please state the reported MBC value of CCCN1CCN(c2ccc3nc(-c4ccc5nc(-c6ccc(OC)c(OC)c6)[nH]c5c4)[nH]c3c2)CC1 . 16

If you can, please state the reported MBC value of CCOc1ccc(-c2nc3ccc(-c4nc5ccc(N6CCN(CCN(C)C)CC6)cc5[nH]4)cc3[nH]2)cc1 . 64

If you can, please state the reported MBC value of CCCN1CCN(c2ccc3nc(-c4ccc5nc(-c6ccc(OCC)cc6)[nH]c5c4)[nH]c3c2)CC1 . 2
